Quick list: IC50 per entry.
# System Name: DRB1*0901 (Homo sapiens, UniProt P01903+P01911, A100R/A103E/D57H/D86V/F55Y/F60I/F76Y/I96F/K127E/L162R/M171V/P40D/Q125H/Q99R/R33Q/R42F/S133A/S66N/T210M/V115G/W38K/Y107V/Y59G/Y89S)
# Experimental Protocol: biochemical
# Assay type: binding
Please reply with the bare figure in µM and do not write the unit itself.

# Compound, Unit Annotation, IC50
data = [
    ("CC[C@H](C)[C@H](NC(=O)[C@H](Cc1c[nH]cn1)NC(=O)[C@H](C)NC(=O)[C@H](Cc1ccc(O)cc1)NC(=O)[C@H](CC(C)C)NC(=O)[C@@H](NC(=O)[C@H](C)NC(=O)[C@@H]1CCCN1C(=O)[C@H](CCCCN)NC(=O)[C@@H](NC(=O)[C@H](CC(C)C)NC(=O)[C@@H](NC(=O)[C@H](CCCCN)NC(=O)[C@@H](N)Cc1ccccc1)[C@@H](C)O)[C@@H](C)CC)[C@@H](C)O)C(=O)N[C@@H](CCC(N)=O)C(=O)O [Peptide 89.0082]", "µM", 0.57),
]

Ask: Annotate the compound CC(C)[C@H](NC(=O)[C@H](CCC(=O)O)NC(=O)[C@H](Cc1c[nH]c2ccccc12)NC(=O)[C@@H](NC(=O)CNC(=O)[C@@H](NC(=O)[C@H](CC(N)=O)NC(=O)CNC(=O)[C@H](Cc1ccc(O)cc1)NC(=O)[C@H](CCCCN)NC(=O)[C@@H](N)CCC(=O)O)[C@@H](C)O)[C@@H](C)O)C(=O)N[C@@H](Cc1c[nH]cn1)C(=O)N[C@@H](Cc1ccccc1)C(=O)NCC(=O)N[C@@H](CC(N)=O)C(=O)O [Peptide 1601.11] with its measured IC50.
Reply: 2.49

###

# System Name: DRB1*0802 (Homo sapiens, UniProt P01903+P01911, A100R/A103L/A169T/F76Y/H45Y/I96F/K41T/L162R/M171V/P40S/Q125H/Q178H/Q39Y/Q99D/R218S/R42G/S66Y/V115G/W38E)
# Experimental Protocol: biochemical
# Format: binding
No end group written: not given here.
Quick list: pIC50 per entry.
Please note pIC50 is a logarithmic value: minus log10 of concentration in mol/L. Answer with that number alone.

Sample answers from the record:
# Chain, pIC50
rows = [
    ("AFQVIELQMALETLS [Peptide 89.0181]", 5.09),
    ("LSHVKIPVVYRLVWD [Peptide 90.0020]", 5.45),
]

Ask: Annotate the sequence QRFHNIRGRWTGRCM [Peptide 1543.27] with its measured pIC50.
Reply: 6.05

###

# System Name: B*0702 (B*0701) (Homo sapiens)
# Experimental Protocol: biochemical
# Format: binding
# Assay Setup: Table 25; given as whole numbers, no unit
Measurement Name: B*0701 binding
Lab note: jot down the number only; don't add units.

Sample answers from the record:
# Substance, Measurement Name, Obs Value
measured = [
    ("1PYPIVRICL (IPYPIVRKL)", "B*0701 binding", 1),
    ("FAMPNFYTL", "B*0701 binding", 0),
    ("MPRGVVVTL", "B*0701 binding", 3),
    ("RYRPGTVAL", "B*0701 binding", 0),
    ("FAMPNFQTL", "B*0701 binding", 0),
    ("LPENNVLSPL", "B*0701 binding", 0),
    ("IPYPIVRSL", "B*0701 binding", 1),
    ("GTRVRAMAI", "B*0701 binding", 0),
]

Ask: Fill in: B*0701 binding on B*0702 (B*0701) (Homo sapiens), entry `QPDDAVYKL`
Reply: 0

Ask: Fill in: B*0701 binding on B*0702 (B*0701) (Homo sapiens), entry `KPLDGEYFTL`
Reply: 0

Ask: Fill in: B*0701 binding on B*0702 (B*0701) (Homo sapiens), entry `CILESCFRAVI`
Reply: 0

Ask: Fill in: B*0701 binding on B*0702 (B*0701) (Homo sapiens), entry `IPFPIVRYL`
Reply: 0

Ask: Fill in: B*0701 binding on B*0702 (B*0701) (Homo sapiens), entry `YPKVKQWPL`
Reply: 0

Ask: Fill in: B*0701 binding on B*0702 (B*0701) (Homo sapiens), entry `YPAEITLYW`
Reply: 0

Ask: Fill in: B*0701 binding on B*0702 (B*0701) (Homo sapiens), entry `GSRAHSSHL`
Reply: 0

###

# System Name: A*0206 (Homo sapiens, UniProt P04439, D140Y/D185E/D98H/E176V/E277Q/F33Y/G131W/G231S/I119V/I121R/I166T/I218V/L300P/L318F/N151K/N90K/P208A/P217A/Q86G/Q94H/R138H/R169H/T345S)
# Experimental Protocol: biochemical
# Type: binding
pIC50: −log10 of the molar value. No end group written: not given here.
Decide using pIC50: a value greater than or equal to 6 is 1 (yes), a smaller one is 0 (no).

# Chain, Label Value
records = [
    ("IIYPNASLV [Peptide 9013.0029]", "1 (yes)"),
    ("RVYVCGIQNSV [Peptide 9013.0336]", "1 (yes)"),
    ("FLGAFKKFL [Peptide 1578.22]", "0 (no)"),
]

Ask: Determine whether measured pIC50 meets or exceeds 6 for SLQDSQFEL [Peptide 1578.35]
Reply: 1 (yes)

Ask: Determine whether measured pIC50 meets or exceeds 6 for GLTVGIMIGVL [Peptide 9013.0343]
Reply: 0 (no)

Ask: Determine whether measured pIC50 meets or exceeds 6 for RLQLSNGNRTL [Peptide 9013.0286]
Reply: 0 (no)

Ask: Determine whether measured pIC50 meets or exceeds 6 for NVAEGKEVLV [Peptide 9013.0133]
Reply: 0 (no)

###

# System Name: HLA-A3.2 (A*0301) (Homo sapiens)
# Experimental Protocol: biochemical
# Format: binding
# Assay Setup: Table 11; binding value, no unit
Quick list: A*0301 binding per entry.
Lab note: jot down the number only; don't add units.

Sample answers from the record:
# Substance, A*0301 binding
measured = [
    ("34.0171 (SSBMGGMNK) [Peptide 34.0171]", 0.5440),
    ("F119.01 (MSLQRQFLR) [Peptide F119.01]", 0.2000),
    ("F119.02 (LLGPGRPYR) [Peptide F119.02]", 0.0190),
    ("34.0232 (RVCACPGRDK) [Peptide 34.0232]", 0.0190),
    ("34.0323 (RVCACPGRDRR) [Peptide 34.0323]", 0.0290),
]

Ask: Annotate the substance 34.0050 (RVCACPGR) [Peptide 34.0050] with its measured A*0301 binding.
Reply: 0.3500

###

Quick list: IC50 per entry.
# System Name: DRB1*1101 (Homo sapiens, UniProt P01903+P01911, A100R/A169T/A87E/I96F/K41T/L162R/M171V/P40S/Q125H/Q178H/Q39Y/Q99D/R42S/S66Y/T262R/V115G/W38E)
# Sequence (P01903 26-254 limits assumed, other chains not shown): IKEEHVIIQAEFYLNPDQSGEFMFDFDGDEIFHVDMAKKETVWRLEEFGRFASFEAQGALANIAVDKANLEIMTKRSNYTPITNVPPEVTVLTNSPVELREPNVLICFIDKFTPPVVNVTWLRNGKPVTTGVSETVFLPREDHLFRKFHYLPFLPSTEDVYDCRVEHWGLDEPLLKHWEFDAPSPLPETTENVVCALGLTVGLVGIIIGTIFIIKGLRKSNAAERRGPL
# Experimental Protocol: biochemical
# Assay Setup: Binding affinity DRB1 *1101
No end group written: not given here.
Please reply with the bare figure in µM and do not write the unit itself.

# Chain, Obs Value
records = [
    ("QSTQVDIRILQELLM [Peptide 1543.11]", 6.48),
    ("FIHFIQGAVISFVNS [Peptide 89.0036]", 4.33),
]

Ask: Annotate the sequence RNTFLDVVTIPNSVQ [Peptide 1601.39] with its measured IC50.
Reply: 0.371

Ask: Annotate the sequence LYGVSFMELIRPFQS [Peptide 89.0041] with its measured IC50.
Reply: 0.039

Ask: Annotate the sequence VKFLRYQQIEFVSFL [Peptide 89.0052] with its measured IC50.
Reply: 1.1

Ask: Annotate the sequence TPEWIQRLTIIQHGI [Peptide 89.0030] with its measured IC50.
Reply: 0.389

Ask: Annotate the sequence RLNLDNDEDKENNGD [Peptide 90.0144] with its measured IC50.
Reply: 1.6

Ask: Annotate the sequence PMAVSKAKACQAIEL [Peptide 90.0013] with its measured IC50.
Reply: 1.55

Ask: Annotate the sequence YRHYQYSLYGKTLEE [Peptide 1543.58] with its measured IC50.
Reply: 0.953

Ask: Annotate the sequence CTLVAGEVDYVGLYY [Peptide 90.0252] with its measured IC50.
Reply: 6.72

###

# System Name: DRB1*0802 (Homo sapiens, UniProt P01903+P01911, A100R/A103L/A169T/F76Y/H45Y/I96F/K41T/L162R/M171V/P40S/Q125H/Q178H/Q39Y/Q99D/R218S/R42G/S66Y/V115G/W38E)
# Experimental Protocol: biochemical
# Format: binding
Measurement Name: IC50

Ask: Annotate the compound CC[C@H](C)[C@H](NC(=O)CNC(=O)[C@H](CCC(=O)O)NC(=O)[C@H](Cc1c[nH]cn1)NC(=O)[C@@H](NC(=O)[C@H](Cc1ccc(O)cc1)NC(=O)[C@H](Cc1ccc(O)cc1)NC(=O)[C@H](CC(C)C)NC(=O)CN)C(C)C)C(=O)N[C@@H](CCCNC(=N)N)C(=O)N[C@H](C(=O)N[C@@H](Cc1ccc(O)cc1)C(=O)N[C@@H](Cc1ccccc1)C(=O)N[C@H](C(=O)N[C@@H](CCC(N)=O)C(=O)O)C(C)C)[C@@H](C)O [Peptide 90.0171] with its measured IC50.
Reply: 7.38 µM

Ask: Annotate the compound CC[C@H](C)[C@H](NC(=O)[C@H](CO)NC(=O)[C@@H](NC(=O)CNC(=O)[C@H](CCC(=O)O)NC(=O)[C@@H]1CCCN1)C(C)C)C(=O)N[C@@H](Cc1c[nH]c2ccccc12)C(=O)N[C@@H](CC(N)=O)C(=O)N1CCC[C@H]1C(=O)N[C@H](C(=O)N[C@@H](CC(C)C)C(=O)N[C@@H](CC(C)C)C(=O)N[C@@H](Cc1c[nH]c2ccccc12)C(=O)N[C@@H](CCC(N)=O)C(=O)N1CCC[C@H]1C(=O)O)[C@@H](C)CC [Peptide 68.0033] with its measured IC50.
Reply: > 20 µM

Ask: Annotate the compound CC(C)[C@H](NC(=O)[C@H](CO)NC(=O)[C@@H](NC(=O)[C@@H](N)[C@@H](C)O)C(C)C)C(=O)NCC(=O)N[C@H](C(=O)N[C@@H](C)C(=O)N[C@@H](CCCCN)C(=O)N[C@H](C(=O)N[C@@H](Cc1ccc(O)cc1)C(=O)NCC(=O)N[C@@H](CCC(N)=O)C(=O)N[C@H](C(=O)N[C@@H](CO)C(=O)N[C@@H](C)C(=O)O)[C@@H](C)O)[C@@H](C)O)[C@@H](C)O [Peptide 89.0163] with its measured IC50.
Reply: > 20 µM
